# System: HUVEC cells
# test details: MTT cytotoxic test of EcCD series fusion protein (50 nM) coupled with 5-FC
# Assay type: cell-based, human
# study conditions: Homo sapiens, 72 h, 5-FU alone

structure smiles	IC50 [µM]
O=c1[nH]cc(F)c(=O)[nH]1	6.5
